- TGT: T1, human TF on the cell surface of tumor cells (human, UniProt P13726 33-295)
- T1 construct: whole, on cells; Endogenous TF on TF-positive human tumor cell lines; also called cell surface TF
- METHOD: flow cytometry on MDA-MB-231 cells, antibody at 10 µg/mL
- Design: reference not given here
TEST_READOUT: MFI
The response must contain the number and no unit.

These solved cases illustrate the format of a correct answer.
BINDER	MFI
TF-mAb-H44 (antibody, V domains shown, Humanized; also called humanized antibody TF-mAb-H44) VH: EVQLVQSGAEVKKPGESLKISCKGSGYSFTSYWMNWVRQMPGKGLEWMGMIYPADSETRLNQKFKDQATLSVDKSISTAYLQWSSLKASDTAMYYCAREDYGSSDYWGQGTTVTVSS VL: EIVLTQSPDFQSVTPKEKVTITCSASSSVSYMNWYQQKPDQSPKIWIYGISNLASGVPSRFSGSGSGTDFTLTINSLEAEDAATYYCQQKSSFPWTFGGGTKVEIK	3430
TF-mAb-H46 (antibody, V domains shown, Humanized) VH: EVQLVQSGAEVKKPGESLKISCKGSGYSFTSYWMNWVKQMPGKGLEWMGMIYPADSETRLNQKFKDKATLSVDKSISTAYLQWSSLKASDTAMYYCAREDYGSSDYWGQGTTVTVSS VL: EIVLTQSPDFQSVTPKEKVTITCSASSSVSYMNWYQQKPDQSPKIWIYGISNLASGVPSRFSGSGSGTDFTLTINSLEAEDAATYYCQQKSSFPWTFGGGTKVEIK	3410
TF-mAb-H35 (antibody, V domains shown, Humanized) VH: EVQLVQSGAEVKKPGESLKISCKGSGYSFTSYWMNWVRQMPGKGLEWMGMIYPADSETRLNQKFKDKATLSVDKSISTAYLQWSSLKASDTAMYYCAREDYGSSDYWGQGTTVTVSS VL: EIVLTQSPATLSLSPGERATLSCSASSSVSYMNWYQQKPGQSPRIWIYGISNLASGVPARFSGSGSGTDFTLTISSLEPEDFAVYYCQQKSSFPWTFGGGTKVEIK	3020
TF-mAb-H30 (antibody, V domains shown, Humanized) VH: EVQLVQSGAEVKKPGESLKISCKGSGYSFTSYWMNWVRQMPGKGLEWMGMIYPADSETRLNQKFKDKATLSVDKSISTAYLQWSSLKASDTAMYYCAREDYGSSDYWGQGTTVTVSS VL: EIVLTQSPATLSLSPGERATLSCSASSSVSYMNWYQQKPGQAPRIWIYGISNLASGIPARFSGSGSGTDFTLTISSLEPEDFAVYYCQQKSSFPWTFGGGTKVEIK	3240
TF-mAb-H47 (antibody, V domains shown, Humanized) VH: QVQLVQSGAEVKKPGASVKVSCKASGYSFISYWMNWVRQAPGQGLEWIGMIYPADSETRLNQKFKDRATLTVDKSTSTAYMELSSLRSEDTAVYYCAREDYGSSDYWGQGTTVTVSS VL: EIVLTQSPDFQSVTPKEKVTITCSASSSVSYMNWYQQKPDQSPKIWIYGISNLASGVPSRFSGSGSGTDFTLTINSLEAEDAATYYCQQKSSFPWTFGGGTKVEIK	3150

For TF-mAb-H40 (antibody, V domains shown, Humanized) VH: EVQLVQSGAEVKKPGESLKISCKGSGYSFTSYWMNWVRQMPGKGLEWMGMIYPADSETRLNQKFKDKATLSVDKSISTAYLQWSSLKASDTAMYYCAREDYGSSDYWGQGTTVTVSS VL: DIQLTQSPSSLSASVGDRVTITCSASSSVSYMNWYQQKPGKSPKIWIYGISNLASGVPSRFSGSGSGTDFTLTISSLQPEDFATYYCQQKSSFPWTFGGGTKVEIK , write its MFI.
3310

For TF-mAb-H37 (antibody, V domains shown, Humanized) VH: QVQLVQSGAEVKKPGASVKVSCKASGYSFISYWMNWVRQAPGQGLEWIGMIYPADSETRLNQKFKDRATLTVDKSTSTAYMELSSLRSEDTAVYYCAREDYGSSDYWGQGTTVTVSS VL: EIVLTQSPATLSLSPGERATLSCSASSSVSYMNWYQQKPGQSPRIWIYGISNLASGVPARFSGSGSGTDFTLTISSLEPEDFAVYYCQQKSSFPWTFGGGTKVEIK , write its MFI.
2990

For TF-mAb-H39 (antibody, V domains shown, Humanized; also called humanized antibody TF-mAb-H39) VH: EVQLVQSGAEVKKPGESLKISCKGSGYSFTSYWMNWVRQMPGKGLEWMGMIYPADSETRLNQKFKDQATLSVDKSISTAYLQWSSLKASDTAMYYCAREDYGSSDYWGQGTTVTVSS VL: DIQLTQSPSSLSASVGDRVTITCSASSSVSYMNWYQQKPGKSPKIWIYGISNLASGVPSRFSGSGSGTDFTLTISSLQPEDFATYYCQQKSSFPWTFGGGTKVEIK , write its MFI.
3380

For TF-mAb-H38 (antibody, V domains shown, Humanized) VH: QVQLVQSGSELKKPGASVKVSCKASGYSFISYWMNWVRQAPGQGLEWIGMIYPADSETRLNQKFKDRAVLSVDKSVSTAYLQICSLKAEDTAVYYCAREDYGSSDYWGQGTTVTVSS VL: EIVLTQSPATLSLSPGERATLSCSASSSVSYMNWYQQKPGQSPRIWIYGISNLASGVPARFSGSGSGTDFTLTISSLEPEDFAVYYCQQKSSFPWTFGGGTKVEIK , write its MFI.
3150

For TF-mAb-H31 (antibody, V domains shown, Humanized) VH: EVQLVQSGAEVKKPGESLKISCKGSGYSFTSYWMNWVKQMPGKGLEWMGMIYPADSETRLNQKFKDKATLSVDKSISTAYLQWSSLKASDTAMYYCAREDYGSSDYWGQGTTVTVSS VL: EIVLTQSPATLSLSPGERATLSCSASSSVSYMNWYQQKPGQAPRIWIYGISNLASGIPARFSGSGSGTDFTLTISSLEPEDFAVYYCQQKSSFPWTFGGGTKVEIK , write its MFI.
3470
